- assay.details: NCI Yeast Anticancer Drug Screen. Data for the wt2 strain (AID 169);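 further: 0% = growth of vehicle-treated yeast cultures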
- assay.setup: S. cerevisiae wt2 strain growth inhibition; at 3.7 µM; active compounds read high
This is part of a sample that, as a whole, favours compounds with a hit. Of some 79,000 tested, about 15% had one in any assay.
experimental.readout: growth inhibition (%)
Field: numeric (%). Do not append units.

Examples from the recorded data:
COc1ccc(C(=O)NCCN(C)C)c2nc3ccccc3cc12    -8
Cc1ccccc1C1=C(CC(=O)O)c2ccccc2CC1C (stereo unspecified)    7
CN(NC(=O)/C(=C/C=C/c1ccccc1)NC(=O)c1ccccc1)C1=C(Cl)C(=O)[N+](c2ccccc2)=CC1    0
O=C1c2ccccc2C2CCC1c1ccccc12 (stereo unspecified)    -11
Cc1ccc(Cl)c2c(=O)c3ccccc3[nH]c12    8

Now for another entry.
Ask: # get_value(readout='growth inhibition', item= CCOc1ccccc1N1C(=O)CC(Sc2ccccc2N)C1=O (stereo unspecified) )
Result: -7

---

growth inhibition values, listed per item
- assay.details: NCI Yeast Anticancer Drug Screen. Data for the mec2-1 strain (AID 157)
- assay.setup: S. cerevisiae mec2-1 strain, at 1.2 µM, active compounds read high
- Procedure: Growth inhibition of yeast strains with defined genetic alterations is measured as a screen for potential anti-cancer activity. Selected strains with alterations in DNA damage repair or cell cycle control were exposed to compounds and growth inhibition was measured relative to vehicle treated controls. The strain used in this assay is mec2-1
The panel holds about 79,000 compounds, 15% with a hit somewhere; the sample as a whole holds those more often.
Field: numeric (%). Do not append units.

O=C(Nc1ccn(C2CC(O)C(COC(c3ccccc3)(c3ccccc3)c3ccccc3)O2)c(=O)n1)c1ccccc1 (stereo not drawn)    -43
NCC(O)CSCc1ccc(Cl)cc1 (stereo not drawn)    -3

Ask: # get_value(readout='growth inhibition', item= `CC(=O)CC[N+](C)(C)C` )
Result: 4

Ask: Another molecule to look at: `CCN(CC)c1cccc(Nc2nc3ccccc3s2)c1`
Result: 13

Ask: Another molecule to look at: CCOc1ccccc1N1C(=O)CC(Sc2ccccc2N)C1=O (stereo not drawn)
Result: 2

Ask: Another molecule to look at: CC(C)c1ccc(C2NC(=S)NC3=C2c2ccccc2C3=O)cc1 (stereo not drawn)
Result: 17

Ask: Another molecule to look at: `Nc1c([N+](=O)[O-])cc2c3c(cccc13)CC2`
Result: 4

Ask: Another molecule to look at: CCCCCCCCCCCCCCCCOCC(Cl)COP(=O)(O)OP(=O)(O)OCC1OC(n2cnc3c(N)ncnc32)C(O)C1O (stereo not drawn)
Result: 14

---

- assay.details: NCI Yeast Anticancer Drug Screen. Data for the rad50 strain (AID 155);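 further: 0% = growth of vehicle-only cultures of the same strain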
- assay.setup: S. cerevisiae rad50 strain growth inhibition; at 3.7 µM; active compounds read high
This is part of a sample that, as a whole, favours compounds with a hit. Of some 79,000 tested, about 15% had one in any assay.
growth inhibition values, listed per item
Field: numeric (%). Do not append units.

O=c1[nH]c(=O)n(CCCO)cc1F    -11
Cc1ccc2c(/C=C/c3ccc(N(C)C)cc3)ccnc2c1C    -41
S=c1[nH]nc(Cc2ccccc2)c(=S)[nH]1    -6
COC1=C(N=[N+]=[N-])C(=O)c2ncccc2C1=O    84
O=C1c2ccc(O)cc2C(=O)c2c(O)ccc(O)c21    35

Ask: # get_value(readout='growth inhibition', item= `C[Si](C)(C)Cc1ccccc1C(=O)O` )
Result: 9

Ask: Another compound to look at: `Cc1cccc(N2CCN(C(=O)/C(=C/c3ccccc3)NC(=O)c3ccccc3)CC2)c1`
Result: -48

Ask: Another compound to look at: `CN(Cc1cccc2ccccc12)Cc1cccc2ccccc12`
Result: -3

Ask: Another compound to look at: CCC(C)C(=O)OCC(=O)c1ccc(-c2ccccc2)cc1 (stereo unspecified)
Result: 0

Ask: Another compound to look at: CC1=NN(C(=O)CC(=O)N(C(=O)c2ccccc2)c2ccc(Cl)cc2)C(=O)C1N=Nc1ccc([N+](=O)[O-])cc1 (stereo unspecified)
Result: 8

Ask: Another compound to look at: `O=c1[nH]cc(F)c(=O)[nH]1`
Result: 17

---

- assay.details: NCI Yeast Anticancer Drug Screen. Data for the wt1 strain (AID 149);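 further: 0% = growth of vehicle-treated wt1 cultures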
- assay.setup: S. cerevisiae wt1 strain (SPY 50644) growth inhibition; at 1.2 µM; active compounds read high
Compounds without any hit were thinned out: in the full panel of roughly 79,000, 15% have a hit.
growth inhibition values, listed per item
Field: numeric (%). Do not append units.

Ask: # get_value(readout='growth inhibition', item= `CN(C)/N=N/c1nc[nH]c1C(N)=O` )
Result: 0

Ask: Another compound to look at: `COc1ccc(CCN2C(=O)C=CC2=O)cc1OC`
Result: -1

Ask: Another compound to look at: Cc1ccccc1C1=C(CC(=O)O)c2ccccc2CC1C (stereo not given)
Result: 4

Ask: Another compound to look at: `Cc1cc(NCCCN(C)C)c2ccc3c(ccc4c(NCCCN(C)C)cc(C)nc43)c2n1`
Result: 22

Ask: Another compound to look at: `CCOC(=O)C1=C(C)NC(C)=C(C(=O)OCC)C1c1cccc([N+](=O)[O-])c1`
Result: -53

Ask: Another compound to look at: `Cc1ccc(N(C=O)c2c([N+](=O)[O-])cc([N+](=O)[O-])c3c2=[N+]([O-])CN=3)cc1`
Result: 3

---

- assay.details: NCI Yeast Anticancer Drug Screen. Data for the sgs1 strain (AID 173);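 further: 0% = growth of vehicle-only control cultures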
- assay.setup: S. cerevisiae sgs1 mutant, at 3.7 µM, active compounds read high
- Protocol: Growth inhibition of yeast strains with defined genetic alterations is measured as a screen for potential anti-cancer activity. Selected strains with alterations in DNA damage repair or cell cycle control were exposed to compounds and growth inhibition was measured relative to vehicle treated controls. The strain used in this assay is sgs1
About 79,000 compounds went through this panel and 15% of them were active in at least one assay; those are over-represented in the sample as a whole.
experimental.readout: growth inhibition (%)
Field: numeric (%). Do not append units.

Examples from the recorded data:
CC(C)(C(=O)NN)c1ccccc1    13
O=[N+]([O-])C(=C(NCc1ccccc1)NCc1ccccc1)C(Cl)=C(Cl)Cl    7
Cc1cc(NCCCN(C)C)c2ccc3c(ccc4c(NCCCN(C)C)cc(C)nc43)c2n1    10
CCOc1ccc2ccc3cccnc3c2n1    1
O=S(=O)(O)c1ccc2c(N=Nc3c(O)ccc4ccccc34)cccc2c1    11
COc1ccc(/C=C2\S/C(=N/Nc3nc(-c4ccccc4)cs3)NC2=O)cc1OC    73
COc1cc(NCCCCCNC(C)C)c2ncccc2c1Cl    -2
Cc1cnccc1N=Nc1ccc(N(C)C)cc1    3

Ask: # get_value(readout='growth inhibition', item= CSc1ccc2c(c1)C(N1CCN(C)CC1)Cc1ccccc1S2 (configuration not stated) )
Result: -84

Ask: Another compound to look at: Cc1ccccc1C1=C(CC(=O)O)c2ccccc2CC1C (configuration not stated)
Result: 10

Ask: Another compound to look at: `Cc1ccc2oc(-c3cccc(N)c3)nc2c1`
Result: 0

Ask: Another compound to look at: `O=C(CCCN1CCC2(CC1)OC(=O)N(c1ccccc1)C2=O)c1ccccc1`
Result: 67

---

growth inhibition values, listed per item
- assay.details: NCI Yeast Anticancer Drug Screen. Data for the rad50EPP+ strain (AID 151);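 further: 0% = growth of vehicle-treated control cultures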
- assay.setup: S. cerevisiae rad50 mutant strain, at 33.0 µM, active compounds read high
About 79,000 compounds went through this panel and 15% of them were active in at least one assay; those are over-represented in the sample as a whole.
Field: numeric (%). Do not append units.

Ask: # get_value(readout='growth inhibition', item= `CCCCCC/C(C)=N/Nc1ccc([N+](=O)[O-])cc1[N+](=O)[O-]` )
Result: 22

Ask: Another compound to look at: `O=S(=O)(O)CC[S][Sn]([S]CCS(=O)(=O)O)([c]1ccccc1)[c]1ccccc1`
Result: -7

Ask: Another compound to look at: [N-]=[N+]=NC1CC(n2ccc(=O)[nH]c2=O)OC1COC(c1ccccc1)(c1ccccc1)c1ccccc1 (stereo unspecified)
Result: -2

Ask: Another compound to look at: `Cc1cccc(N2CCN(C(=O)/C(=C/c3ccccc3)NC(=O)c3ccccc3)CC2)c1`
Result: 2

---

growth inhibition values, listed per item
- assay.details: NCI Yeast Anticancer Drug Screen. Data for the bub3 strain (AID 167)
- assay.setup: S. cerevisiae bub3 mutant strain, at 50.0 µM, active compounds read high
This is part of a sample that, as a whole, favours compounds with a hit. Of some 79,000 tested, about 15% had one in any assay.
Field: numeric (%). Do not append units.

O=C1c2ccc(O)cc2C(=O)c2c(O)ccc(O)c21    29

Now for another entry.
Ask: # get_value(readout='growth inhibition', item= `CN(C)CCC(=O)c1c[nH]c2ccccc12` )
Result: 64.9
